method summary: Acute toxicity test
condition notes: mouse, in vivo, po; P.O., mice, suspension in 0.3% CMC, 7 days after administration
measured property: LD50 at 168 h

As a guide, the following entries are already answered.
>>> result("CN1CCC(=O)N(c2ccc(Cl)cc2Cl)C1=O")
"> 300 mg/kg"
>>> result("CN1C(=O)CCN(c2ccc(C(F)(F)F)cc2)C1=O")
"> 300 mg/kg"

Query: State, in one line, measured LD50 at 168 h of CN1CCC(=O)N(c2cccc(Cl)c2Cl)C1=O
Response: > 300 mg/kg

Query: Given CN1CCC(=O)N(c2cc(Cl)ccc2Cl)C1=O , respond with its LD50 at 168 h.
Response: > 300 mg/kg

====

Test system: male dd-strain mice
method summary: Pentetrazol-induced seizure test
Format: in vivo
condition notes: Mus musculus, po, P.O., 120 mg/kg pentetrazol s.c., suppression of clonic seizure in at least 3 of 5 mice, read-out: MED for anticonvulsive action, Pentetrazol-induced seizure test
Procedure: (2) Pentetrazol-induced seizure test Groups of mice, each consisting of 5 male dd-strain mice having a weight of 20±1 g were subcutaneously administered by 120 mg/kg of pentetrazol, and occurrence of clonic seizure was observed. Suppression of clonic seizure occurrence on at least three mice was regarded as effective, and MED was determined.
Readings of minimal effective dose for the listed molecules
Field format: number, assumed mg/kg, no unit text.

>>> quantitative_result("CN1CCC(=O)N(c2cccc(Cl)c2Cl)C1=O [Compound 34]")
300
>>> quantitative_result("CN1CCC(=O)N(c2ccc(Cl)cc2Cl)C1=O [Compound 36]")
200
>>> quantitative_result("CN1C(=O)CCN(c2ccc(Cl)cc2)C1=O [Compound 3]")
200
>>> quantitative_result("Cc1cc(Cl)ccc1N1CCC(=O)N(C)C1=O [Compound 9]")
200

Query: Give the value of minimal effective dose reported for the following: CN1CCC(=O)N(c2cccc3ccccc23)C1=O [Compound 47, 1-methyl-3-α-naphthyl-dihydrouracil]
Response: 200

Query: Specify reported minimal effective dose for the molecule shown: CN1C(=O)CCN(c2cccc(C(F)(F)F)c2)C1=O [Compound 7]
Response: 100

Query: Identify measured minimal effective dose associated with CN1C(=O)CCN(c2ccc(C(F)(F)F)cc2)C1=O [Compound 33]
Response: 300

Query: Please give measured minimal effective dose of the following entry: CN1CCC(=O)N(c2ccccc2Cl)C1=O [Compound 29]
Response: 150

Query: Answer with the recorded minimal effective dose for the molecule listed here: CN1C(=O)CCN(c2ccc(Cl)cc2Cl)C1=O [Compound 31]
Response: 100

Query: Look up and state reported minimal effective dose for CN1CCC(=O)N(c2cc(Cl)ccc2Cl)C1=O [Compound 24]
Response: 100

====

method summary: Acute toxicity test
condition notes: mouse, in vivo, po; P.O., mice, suspension in 0.3% CMC, 7 days after administration
Parameter LD50 at 168 h: see the listing below.

>>> result("CN1CCC(=O)N(c2ccccc2Cl)C1=O")
"> 300 mg/kg"
>>> result("CN1CCC(=O)N(c2cccc3ccccc23)C1=O [Compound 47, 1-methyl-3-α-naphthyl-dihydrouracil]")
"> 300 mg/kg"
>>> result("Cc1cc(Cl)ccc1N1CCC(=O)N(C)C1=O")
"> 300 mg/kg"
>>> result("CN1C(=O)CCN(c2ccc(Cl)cc2Cl)C1=O")
"> 300 mg/kg"

Query: Please look at this compound and report its LD50 at 168 h: CN1C(=O)CCN(c2cccc(C(F)(F)F)c2)C1=O
Response: > 1000 mg/kg

Query: Tell me LD50 at 168 h reported for CN1C(=O)CCN(c2ccc(Cl)cc2)C1=O
Response: > 300 mg/kg
